Target: T1, human tankyrase 1 ankyrin repeat clusters 2-3 (TNKS1 ARC2-3, residues 315-662) (human, UniProt O95271 315-662)
T1 sequence (looked up): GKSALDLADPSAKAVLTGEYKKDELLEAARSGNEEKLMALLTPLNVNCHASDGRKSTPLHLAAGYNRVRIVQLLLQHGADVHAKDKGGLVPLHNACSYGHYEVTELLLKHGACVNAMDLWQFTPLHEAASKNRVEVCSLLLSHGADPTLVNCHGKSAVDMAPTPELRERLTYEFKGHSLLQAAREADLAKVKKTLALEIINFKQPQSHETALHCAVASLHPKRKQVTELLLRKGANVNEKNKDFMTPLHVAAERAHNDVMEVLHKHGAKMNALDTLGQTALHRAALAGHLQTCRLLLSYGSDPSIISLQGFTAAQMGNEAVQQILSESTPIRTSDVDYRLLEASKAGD
Assay: fluorescence polarisation; direct: TNKS2 ARC4 or TNKS1 ARC2-3 diluted 2-fold serially (40-0 uM, 50 uL) and mixed with TAMRA-labeled peptide (20 nM, 50 uL); 50 mM HEPES pH 7.5, 300 mM NaCl, 2 mM DTT, 0.05% Tween 20; 30 min, 25 C
Details: both partners purified
Bridge positions count the residues as written; N and C are the ends. Square brackets hold non-standard residues; d marks the D form. Ends that are not written are not given here. * marks the point of attachment. 5‑TAMRA = CN(C)c1ccc2c(-c3ccc(C(=O)*)cc3C(=O)[O-])c3ccc(N(C)C)cc3[o+]c2c1; Aha = [N-]=[N+]=NCC[C@H](N)C(=O)O; m3N = not defined here; m3c = not defined here; m3 = not defined here; m4 = not defined here; Ahx = NCCCCCC(=O)O
# strict inequality: Kd < 300 nM yields true, everything else yields false

{"binder": "{5‑TAMRA-Ahx}-RE[Aha]GDG[Aha]E (triazole 3-7 via m3N; reading uncertain) [T-cp4n2m3N]", "class label": "true"}
{"binder": "{5‑TAMRA-Ahx}-RE[Aha]GDG[Aha]E (triazole 3-7 via m4; reading uncertain) [T-cp4n2m4]", "class label": "true"}
{"binder": "{5‑TAMRA-Ahx}-RE[Aha]GDG[Aha]E (triazole 3-7 via m3; reading uncertain) [T-cp4n2m3]", "class label": "true"}
{"binder": "{5‑TAMRA-Ahx}-REAGDGEE [T-pep1 (TAMRA-Ahx-REAGDGEE)]", "class label": "true"}
{"binder": "{5‑TAMRA-Ahx}-RE[Aha]GDG[Aha]E-NH2 (triazole 3-7 via m3c; reading uncertain) [T-cp4n2m3c]", "class label": "false"}

// data source = paper PMC5358875
